test_description: clinical
experimental_parameters: both, human, plasma, po, 500 mg
experimental_endpoint: half-life

Prompt line: Look at this compound and give its reported half-life. CCCCCc1ccc(/C(C)=C/C(=O)N[C@@H](Cc2c[nH]c3ccccc23)C(=O)N[C@H](CC(N)=O)C(=O)N[C@@H](CC(=O)O)C(=O)N[C@@H]2C(=O)NCC(=O)N[C@@H](CCCN)C(=O)N[C@@H](CC(=O)O)C(=O)N[C@H](C)C(=O)N[C@@H](CC(=O)O)C(=O)NCC(=O)N[C@H](CO)C(=O)N[C@@H]([C@H](C)CC(=O)O)C(=O)N[C@@H](CC(=O)c3ccccc3N)C(=O)O[C@@H]2C)cc1 [surotomycin]
Response line: 18.3 h

----------
test_description: clinical
experimental_parameters: both, human, plasma, po, 500 mg
experimental_endpoint: Cmax (ng/mL)
Quick note: give the figure in ng/mL, leave out the unit.

Prompt line: Requested field: Cmax. Item: "CCCCCc1ccc(/C(C)=C/C(=O)N[C@@H](Cc2c[nH]c3ccccc23)C(=O)N[C@H](CC(N)=O)C(=O)N[C@@H](CC(=O)O)C(=O)N[C@@H]2C(=O)NCC(=O)N[C@@H](CCCN)C(=O)N[C@@H](CC(=O)O)C(=O)N[C@H](C)C(=O)N[C@@H](CC(=O)O)C(=O)NCC(=O)N[C@H](CO)C(=O)N[C@@H]([C@H](C)CC(=O)O)C(=O)N[C@@H](CC(=O)c3ccccc3N)C(=O)O[C@@H]2C)cc1"
Response line: 10.5

----------
test_description: clinical
experimental_parameters: both, human, plasma, po, 4000 mg
experimental_endpoint: Tmax (h)
Numbers only; they are read as h.

Prompt line: Data request, read-out Tmax, for "CCCCCc1ccc(/C(C)=C/C(=O)N[C@@H](Cc2c[nH]c3ccccc23)C(=O)N[C@H](CC(N)=O)C(=O)N[C@@H](CC(=O)O)C(=O)N[C@@H]2C(=O)NCC(=O)N[C@@H](CCCN)C(=O)N[C@@H](CC(=O)O)C(=O)N[C@H](C)C(=O)N[C@@H](CC(=O)O)C(=O)NCC(=O)N[C@H](CO)C(=O)N[C@@H]([C@H](C)CC(=O)O)C(=O)N[C@@H](CC(=O)c3ccccc3N)C(=O)O[C@@H]2C)cc1"
Response line: 12

----------
test_description: clinical
experimental_parameters: both, human, plasma, po, 250 mg, Tmax, MAD, 250 mg BID oral, day 14 morning dose, LC/MS/MS, LLOQ 1 ng/mL, median (range)
experimental_endpoint: Tmax (h)
// note: answer is a bare numeric in h

Prompt line: Give the measured Tmax of "CCCCCc1ccc(/C(C)=C/C(=O)N[C@@H](Cc2c[nH]c3ccccc23)C(=O)N[C@H](CC(N)=O)C(=O)N[C@@H](CC(=O)O)C(=O)N[C@@H]2C(=O)NCC(=O)N[C@@H](CCCN)C(=O)N[C@@H](CC(=O)O)C(=O)N[C@H](C)C(=O)N[C@@H](CC(=O)O)C(=O)NCC(=O)N[C@H](CO)C(=O)N[C@@H]([C@H](C)CC(=O)O)C(=O)N[C@@H](CC(=O)c3ccccc3N)C(=O)O[C@@H]2C)cc1" .
Response line: 4.5

----------
test_description: clinical
experimental_parameters: both, human, plasma, po, 4000 mg
experimental_endpoint: Cmax (ng/mL)
Please give a number only; it is taken to be in ng/mL.

Prompt line: I'd like to know its Cmax. The compound in question is "CCCCCc1ccc(/C(C)=C/C(=O)N[C@@H](Cc2c[nH]c3ccccc23)C(=O)N[C@H](CC(N)=O)C(=O)N[C@@H](CC(=O)O)C(=O)N[C@@H]2C(=O)NCC(=O)N[C@@H](CCCN)C(=O)N[C@@H](CC(=O)O)C(=O)N[C@H](C)C(=O)N[C@@H](CC(=O)O)C(=O)NCC(=O)N[C@H](CO)C(=O)N[C@@H]([C@H](C)CC(=O)O)C(=O)N[C@@H](CC(=O)c3ccccc3N)C(=O)O[C@@H]2C)cc1"
Response line: 86.7

Data origin: paper PMC5368910
